B1: glmS ribozyme (parent)
chain: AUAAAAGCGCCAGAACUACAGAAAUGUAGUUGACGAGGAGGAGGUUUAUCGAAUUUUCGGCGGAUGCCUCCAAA

Variants of: B1
Test: self-cleavage kobs at 2500 uM GlcN6P; higher = faster cleavage; RNA array
Conditions: with glucosamine-6-phosphate
Fewer inactive variants are shown than the library holds.
Consider the following variants and their measured self-cleavage kobs at 2500 uM GlcN6P readings.
parameter: self-cleavage kobs at 2500 uM GlcN6P (s⁻¹)

| seq string | parameter | measurement units | censoring sign | value |
| --- | --- | --- | --- | --- |
| AUAAAAGCGCCAGGACUACAGAAAUGUAGUUGACGAGGAGGAGGUUUAUCGAAUUUUCGGCGGAUGCAUCCAAA [A14G C68A] | self-cleavage kobs at 2500 uM GlcN6P | s⁻¹ | = | 0.000105 |
| AUAAAAGCGCCAGAACUACAGAAAUGUAGUUGACGAGGAGGAGGAUUAUCGAAUUUUUGGCGGAUGCCUCCAAA [U45A C58U] | self-cleavage kobs at 2500 uM GlcN6P | s⁻¹ | = | 9.07e-05 |
| AUAAAAGCGCCAGAUCUACAGAAAUGUAGUUGACGAGGAGGAGGUCUAUCGAAUUUUCGGCGGAUGCCUGCAAA [A15U U46C C70G] | self-cleavage kobs at 2500 uM GlcN6P | s⁻¹ | = | 8.21e-05 |
| AUAAAAGCGCCAGAACUACAGAAAUGUAGUUGACGAGGAGGAGGUUUAUCCAAUUUUCAGCGGAUGCCUCUAAA [G51C G59A C71U] | self-cleavage kobs at 2500 uM GlcN6P | s⁻¹ | < | 1e-05 |
| AUAAAAGCCUCAGAGCUACAGAAAUGUAGUUGACGAGGAGGAGGUUUAUCGAAUUUUCGGCGGAUGCCGCCAAA [G9C C10U A15G U69G] | self-cleavage kobs at 2500 uM GlcN6P | s⁻¹ | < | 1e-05 |
| AUAAAAGCGCCAGAACUACAGAAAUGUAAUAGACGAGGAGGAGGUUUAUCGAAUUUUCGGCGGAUGCCUCCAAA [G29A U31A] | self-cleavage kobs at 2500 uM GlcN6P | s⁻¹ | = | 0.00129 |
| AUAAAAGCGCCAGAACUACAGAAAUGUAGUUGACGAGGAGGAGGUUUAUGGAAUUUUCGGCGGAUGGCUUAAAA [C50G C67G C70U C71A] | self-cleavage kobs at 2500 uM GlcN6P | s⁻¹ | = | 0.000157 |
| AUAAAAGCGCCAUAACUACAGAAAUGUAGUUGACGAGGAGGAGGUUUAUCGAAUUUUCGGCGGAUACCUCCAAA [G13U G66A] | self-cleavage kobs at 2500 uM GlcN6P | s⁻¹ | = | 0.000499 |
| AUAAAAGGGCCUGAAUUACAGAAAUGUAGUUGACGAGGAGGAUGUUUAUCGAAUUUUCGGCGGAUGCCUCCAAA [C8G A12U C16U G43U] | self-cleavage kobs at 2500 uM GlcN6P | s⁻¹ | < | 1e-05 |
| AUAAAAGCGCCAGAACUACAGAAAUGUAGUUGACGAGGAGGAGGUUUAUCGAAUUUUCGGCGGAGGGCUCCAAA [U65G C67G] | self-cleavage kobs at 2500 uM GlcN6P | s⁻¹ | = | 0.00082 |
| AUAAAAGCGCCAGAACUACAGAAAUGUAGUUGUCGAGGAGGAGGUUUAUCGAAUUUUCGGCGGAUGACUCCAAA [A33U C67A] | self-cleavage kobs at 2500 uM GlcN6P | s⁻¹ | = | 2.58e-05 |
| AUAAAAGCGCCAGAAAUACAGAAAUGUAGUUGACGAGUAGGAGGUUUAUCGAAUUUUCGGCGGAUGCCUCCAAA [C16A G38U] | self-cleavage kobs at 2500 uM GlcN6P | s⁻¹ | < | 1e-05 |
| AUAAAAGCGCCAGAUCUACAGAAAUGUAGUUGACGAGGAGGAGGAUUAUCGAAUUUCCGGCGGAUGCCUCCAAA [A15U U45A U57C] | self-cleavage kobs at 2500 uM GlcN6P | s⁻¹ | = | 4.29e-05 |
| AUAAAAUCGCCAGAACUACAGAAAUGUAGUUGACGAGGAGGAGGUUUAUCGAAUUUUCGGCGGAUGCAUCCAAA [G7U C68A] | self-cleavage kobs at 2500 uM GlcN6P | s⁻¹ | < | 1e-05 |
| AUAAAAUCGCCAGGACUACAGAAAUGUAGUUGACGAGGAUGAGGUUUAUCGAAUUUUCGGCGGAUGCCUCCAAA [G7U A14G G40U] | self-cleavage kobs at 2500 uM GlcN6P | s⁻¹ | < | 1e-05 |
| AUAAAAGCGCCAGAACUACAGAAAUGUAGUUGACGAGGAGGAGAUUUAUCGAAUAUUCUGCGGAUGCCUCCAAA [G44A U55A G59U] | self-cleavage kobs at 2500 uM GlcN6P | s⁻¹ | < | 1e-05 |
| AUAAAGGCGCCAGAACUACAGAAAUGUAGUUGCCGAGGAGGAGGUUUAUCGAAUUUUCGGCGGAUGCCUCCAAA [A6G A33C] | self-cleavage kobs at 2500 uM GlcN6P | s⁻¹ | < | 1e-05 |
| AUAAAAGCGUCAGAACUACAGAAAUGUAUUUGACGAGGAGGAGGUUUAUCGAAUGUUCGGCGGAUGCCUCCAAA [C10U G29U U55G] | self-cleavage kobs at 2500 uM GlcN6P | s⁻¹ | < | 1e-05 |
| AUAAAUGCGCCAGAACUACAGAAAUGUAGUUGACCAGGAGGAGGUUUAUCGAAUUUUCGGCGGCUGCCUCCAAA [A6U G35C A64C] | self-cleavage kobs at 2500 uM GlcN6P | s⁻¹ | < | 1e-05 |
| AUAAAAACGCCAGAACUACAGAAAUGUAGUUGUCGAGGAGGAGGUUUAUCGAAUUUUCGGGGGAUGCCUGCAAA [G7A A33U C61G C70G] | self-cleavage kobs at 2500 uM GlcN6P | s⁻¹ | < | 1e-05 |
| AUAAAAGCGCCAUAACUACAGAAAUGUAGUUGACGAGGAGGAGGUUUAUCGCAUUUUCGGCGGAUGCCUCCAAA [G13U A52C] | self-cleavage kobs at 2500 uM GlcN6P | s⁻¹ | < | 1e-05 |
| AUAAAAGCGCCAGAACUACAGAAAUGUAGUUGACGAGGAGGAGGUUUACCGCAUUUUCGGCGGAUGCCUCCAAA [U49C A52C] | self-cleavage kobs at 2500 uM GlcN6P | s⁻¹ | < | 1e-05 |
| AUAAAAGCGGCAGAACUACAGAAAUGUAGUUGAUGAUGAGGGGGUUUAUCGAAUUUUCGGCGGAUGCCUCCAAA [C10G C34U G37U A42G] | self-cleavage kobs at 2500 uM GlcN6P | s⁻¹ | < | 1e-05 |
| AUAAAAGCGCCAGAAGUACAGAAAUGUAGUUGACGAGGAGGAGGUUUAUCGAUUUUUCGGCGGAUGCCUCCAAA [C16G A53U] | self-cleavage kobs at 2500 uM GlcN6P | s⁻¹ | = | 0.00182 |
| AUAAAAGCGCCAGAACUACAGAAAUGUAGUUGACGAGGAGGAGGUCUAUCGUAUUUUCGGCGGAUGCCUCCAAA [U46C A52U] | self-cleavage kobs at 2500 uM GlcN6P | s⁻¹ | = | 6.32e-05 |
| AUAAAAGCGCCAAAACUACAGAAAUGUAGUUGACGAGGAGGAGGUUUAUCGAAUUUUCGGCGGAUACCUCCAAA [G13A G66A] | self-cleavage kobs at 2500 uM GlcN6P | s⁻¹ | = | 0.000129 |
| AUAAAAGCGCCAGAACUACAGAAAUGUAGUUGACGAGGAGGAGGUUUAUUGAAUUUUCGACGAAUGCCUCCAAA [C50U G60A G63A] | self-cleavage kobs at 2500 uM GlcN6P | s⁻¹ | < | 1e-05 |
| AUAAAAGCGCCAGAACUACAGAAAUGUAGUUCACGAGGAGGAGGUUUAUCGAAUUUUCGGCGAAAGCCUCCAAA [G32C G63A U65A] | self-cleavage kobs at 2500 uM GlcN6P | s⁻¹ | < | 1e-05 |
| AUAAAAGCGCCAGAUCUACAGAAAUGUAGUUGACGAGGAGGAGGUAUAUCGAAUUUUCGGCGGAUGCCUCCAAA [A15U U46A] | self-cleavage kobs at 2500 uM GlcN6P | s⁻¹ | = | 0.000225 |
| AUAAAAUCGCCAGAACUACAGAAAUGUAGUUUACGAGGAGGAGGUUUAACGAAUUUUCGGCGGAUGCCUCCAAA [G7U G32U U49A] | self-cleavage kobs at 2500 uM GlcN6P | s⁻¹ | < | 1e-05 |
| AUAAAAGCGCCAUAACUACAGAAAUGUAGUUGACGAGGAGGAGGUUUAUCGAAUUUUGGGCGGAUGCCUCCAAA [G13U C58G] | self-cleavage kobs at 2500 uM GlcN6P | s⁻¹ | = | 0.000127 |
| AUAAAAGCGCCAGAACUACAGAAAUGUAGUAGACGUGGAGGAGGUUUAUCGAAUUUUCAGCGGAUGCCUCCAAA [U31A A36U G59A] | self-cleavage kobs at 2500 uM GlcN6P | s⁻¹ | < | 1e-05 |
| AUAAAAGCGCCAGAUCUACAGAAAUGUAUUUGACGAGGAGGAGGUUUAUCGAAUAUUCGGCGGAUGCCUCCAAA [A15U G29U U55A] | self-cleavage kobs at 2500 uM GlcN6P | s⁻¹ | = | 0.00225 |
| AUAAAAGUACCAGAAUUACAGAAAUGUAGUUGACGAGGAGGAGGUUUAUUGUAUUUUCGGCGGAUGCCUCCAAA [C8U G9A C16U C50U A52U] | self-cleavage kobs at 2500 uM GlcN6P | s⁻¹ | < | 1e-05 |
| AUAAAAGCGCCACAACUACAGAAAUGUAGUUGCCGAGGAGGAGGUUUAUCGAAUUUUCGGCGGAUGCCUCCAAA [G13C A33C] | self-cleavage kobs at 2500 uM GlcN6P | s⁻¹ | < | 1e-05 |
| AUAAAAGCGCCAGUACUACAGAAAUGUAGUUCACGAGGAGGAGGUUUAUCGAAUUUUCGGCGGAUGCCUCCAAA [A14U G32C] | self-cleavage kobs at 2500 uM GlcN6P | s⁻¹ | = | 0.000199 |
| AUAAAAGCGCCAGAACUACAGAAAUGUAGUUGACGAGGUGGAGGUUUAUCGAAUUAUCGGCGGAUGCCUCCUAA [A39U U56A A72U] | self-cleavage kobs at 2500 uM GlcN6P | s⁻¹ | = | 0.00356 |
| AUAAAUGCGCCAGAACUACAGAAAUGUAGUUGACGAAGAGGAGGUUUACCGAAAUUUCGGCGGAUGCCUCCAAA [A6U G37A U49C U54A] | self-cleavage kobs at 2500 uM GlcN6P | s⁻¹ | < | 1e-05 |
| AUAAAAGCGCCAGAACUACAGAAAUGUAGUGGACGAGGAGGAGGUUUAUCGAAUUUUCGGCGGAUGCGUGCAAA [U31G C68G C70G] | self-cleavage kobs at 2500 uM GlcN6P | s⁻¹ | < | 1e-05 |
| AUAAAAGCGCCAGAACUACAGAAAUGUAGUUGACGAGGAGGAGGUGUAUCGAAUUUUCGGCGGAUGGGUCCAAA [U46G C67G C68G] | self-cleavage kobs at 2500 uM GlcN6P | s⁻¹ | = | 7.29e-05 |
| AUAAAAGCGCCAGAACUACAGAAAUUUAGUUGUCGAGGAGGAGGUUUAUCGAAUUUUCGGCGGAUGCCUCCAAA [G26U A33U] | self-cleavage kobs at 2500 uM GlcN6P | s⁻¹ | = | 0.000111 |
| AUAAAAGCGCCAGCACUACAGAAAUGUAGUUGACGAAGAGGAGGUUUAUCGAAUUUUCGGCGGAUGCCUCCAAA [A14C G37A] | self-cleavage kobs at 2500 uM GlcN6P | s⁻¹ | = | 0.000201 |
| AUAAAAGCGCCAUAACUACAGAAAUGUAGUUGACGAGGCGGAGGUUUAUCGAAUUGUCGGCGGAUGCCUCCAAA [G13U A39C U56G] | self-cleavage kobs at 2500 uM GlcN6P | s⁻¹ | = | 3.76e-05 |
| AUAAAAGCGCCAGAACUACAGAAAUGUAGUUGACGAUGAGGUGGUUUAUCGAAGUUACGGCGGAUGACUCCAAA [G37U A42U U54G U57A C67A] | self-cleavage kobs at 2500 uM GlcN6P | s⁻¹ | < | 1e-05 |
| AUAAAAGCGCCUAAACUACAGAAAUGUAGUUGACGAGUAGGAGGUUUAUCGAAUUUUCGGCGGAUGCCUCCAAA [A12U G13A G38U] | self-cleavage kobs at 2500 uM GlcN6P | s⁻¹ | < | 1e-05 |
